pIC50: −log10 of the molar value.
Observed pIC50 values for HCV RdRp (NS5B) (UniProt P26663) are listed in what follows.

Item: "Cc1ccc(NC(=O)[C@H](CCCCN)NC(=O)Nc2cccc(Oc3ccccc3)c2)cc1" | System: HCV RdRp (NS5B) (UniProt P26663) | pIC50: < 4.30

Item: "COc1ccc(NC(=O)[C@H](CCCCN)NC(=O)OCC2c3ccccc3-c3ccccc32)cc1" | System: HCV RdRp (NS5B) (UniProt P26663) | pIC50: 4.30 to 5.00

Item: Cc1ccc(NC(=O)C(CCCCN)NC(=O)Cc2ccc(-c3ccccc3)cc2)cc1 (centres unmarked) | System: HCV RdRp (NS5B) (UniProt P26663) | pIC50: < 4.30

Item: "Cc1ccc(NC(=O)C[C@H](CCCCN)NC(=O)Nc2ccc3c(c2)Cc2ccccc2-3)cc1" | System: HCV RdRp (NS5B) (UniProt P26663) | pIC50: 4.30 to 5.00

Item: "NCCCC[C@H](NC(=O)Nc1ccc(OCc2ccccc2)cc1)C(=O)NC1CCCC1" | System: HCV RdRp (NS5B) (UniProt P26663) | pIC50: 4.30 to 5.00

Item: NCCCCC(NC(=O)OCC1c2ccccc2-c2ccccc21)C(=O)NCc1ccccc1 (stereo in doubt) | System: HCV RdRp (NS5B) (UniProt P26663) | pIC50: < 4.30

Item: Cc1ccc(NC(=O)C(CCCCN)NC(=O)C(N)Cc2c[nH]c3ccccc23)cc1 (centres unmarked) | System: HCV RdRp (NS5B) (UniProt P26663) | pIC50: < 4.30

Item: "Cc1ccc(NC(=O)[C@@H](CCCCN)NC(=O)Nc2cccc(OCc3ccccc3)c2)cc1" | System: HCV RdRp (NS5B) (UniProt P26663) | pIC50: < 4.30
